# Tested on: SNB-19 CNS
# experiment: NCI tumour cell line growth inhibition, 48 h
Listing of recorded TGI by entry.
endpointName: TGI

{"molecule": "CSC(C1c2ccccc2N(C)C2=NC(=O)N(C)C(=O)C21Cl)S(=O)(=O)c1ccc(C)cc1 (stereo not given)", "endpointName": "TGI", "recordedResult": "> 100 µM"}
{"molecule": "CN(C)CCNc1ccc2c(=O)n(CCN(C)C)c(=O)n3c4ccc([N+](=O)[O-])cc4c(=O)c1c23", "endpointName": "TGI", "recordedResult": "4.51 µM"}
{"molecule": "CC1(c2nc3cc(Cl)c(Cl)cc3[nH]2)CCC(CO)C(C)(C)O1 (stereo not given)", "endpointName": "TGI", "recordedResult": "> 100 µM"}
{"molecule": "Cc1ccc(NC(=O)NC(=O)c2ccc([N+](=O)[O-])cc2[N+](=O)[O-])cc1Oc1ncc(Cl)cn1", "endpointName": "TGI", "recordedResult": "21.4 µM"}
{"molecule": "C/C(=N\\NC(=O)c1ccncc1)c1ccc2ccccc2c1O", "endpointName": "TGI", "recordedResult": "> 100 µM"}
{"molecule": "Cn1c(=O)cc(NCc2ccc(Cl)cc2)[nH]c1=O", "endpointName": "TGI", "recordedResult": "> 100 µM"}
{"molecule": "Cc1cc2cc3cc(C)c(N(C)C)cc3nc2cc1N(C)C", "endpointName": "TGI", "recordedResult": "> 100 µM"}
{"molecule": "CC(=O)Nc1ccc(Sc2ccc([N+](=O)[O-])o2)cc1", "endpointName": "TGI", "recordedResult": "23.2 µM"}
{"molecule": "CN1CN(c2ccccc2)C2(CCN(CCCSc3ccccc3NC(=O)/C=C/c3ccccc3)CC2)C1=O", "endpointName": "TGI", "recordedResult": "25.1 µM"}
{"molecule": "NS(=O)(=O)c1cc2c(cc1Cl)NC(Cc1ccccc1)NS2(=O)=O (stereo not given)", "endpointName": "TGI", "recordedResult": "> 100 µM"}
{"molecule": "COc1ccc(C2=NNC(=O)OC2c2ccccc2)cc1 (stereo not given)", "endpointName": "TGI", "recordedResult": "> 100 µM"}
{"molecule": "CC(C)(C)NN=C1C(C)(C)C(=NNC(C)(C)C)C1(C)C", "endpointName": "TGI", "recordedResult": "> 100 µM"}
{"molecule": "CC(=O)N1CC(Nc2ccc(OC(F)(F)F)cc2)=CC1=O", "endpointName": "TGI", "recordedResult": "> 100 µM"}
{"molecule": "O=c1[nH]c(Nc2cccc(C(F)(F)F)c2)nc2nc[nH]c12", "endpointName": "TGI", "recordedResult": "> 100 µM"}
{"molecule": "CC(=O)c1ccc(NC(=O)CSc2nnc(-c3cc(-c4ccc(C)cc4)nc4ccccc34)o2)cc1", "endpointName": "TGI", "recordedResult": "19.3 µM"}

---

# Test system: HOP-18 NSCLC
# experiment: NCI tumour cell line growth inhibition, 48 h
endpointName: TGI

{"compound": "COC(=O)C(CCCC1(c2ccccc2)OCCO1)C(C)=O (centres undefined)", "targetUnderTest": "HOP-18 NSCLC", "recordedResult": "> 100 µM"}
{"compound": "CN(C)c1ccc(N=Cc2c([O-])ccc3ccccc23)cc1.[C-]#[O+].[C-]#[O+].[Ir]", "targetUnderTest": "HOP-18 NSCLC", "recordedResult": "27.6 µM"}
{"compound": "Cc1ccc(-c2nc(SCC(=O)O)n[nH]2)cc1", "targetUnderTest": "HOP-18 NSCLC", "recordedResult": "> 100 µM"}
{"compound": "N#CC(C(=O)/C(=N\\Nc1nc(=S)[nH]n1N)C(C#N)c1ccc(Cl)cc1)c1ccc(Cl)cc1 (centres undefined)", "targetUnderTest": "HOP-18 NSCLC", "recordedResult": "> 100 µM"}

---

# System: EKVX NSCLC
# experiment: NCI tumour cell line growth inhibition, 48 h
Where a SMILES comes first, the peptide text is derived from it. [ ]: non-standard residue; d: D form. The star is where a group is joined. AllylGly = C=CC[CH](N)C(=O)O; Boc = CC(C)(C)OC(=O)*; OtBu = CC(C)(C)O*
Listing of recorded TGI by entry.

{"molecule": "CN(NC(=O)CCCl)C1=NCCN1", "targetUnderTest": "EKVX NSCLC", "TGI": "> 100 µM"}
{"molecule": "Brc1ccc(-c2nnc(-c3nn(-c4ccccc4)c4nc5ccccc5nc34)o2)cc1", "targetUnderTest": "EKVX NSCLC", "TGI": "> 100 µM"}
{"molecule": "CC1(C)N=C(C(N)=O)c2ncn(-c3ccccc3)c2N1", "targetUnderTest": "EKVX NSCLC", "TGI": "> 100 µM"}
{"molecule": "NC(N)=NS(=O)(=O)c1ccc(NCc2c3ccccc3nc3ccccc23)cc1", "targetUnderTest": "EKVX NSCLC", "TGI": "> 71.7 µM"}
{"molecule": "O=C/C(=C(/Br)I)c1ccccc1", "targetUnderTest": "EKVX NSCLC", "TGI": "28.6 µM"}
{"molecule": "CCOC(=O)CCC(NC(=O)c1ccc(Oc2nc3ccc(C(F)(F)F)cc3nc2-c2ccccc2)cc1)C(=O)OCC (stereo not drawn)", "targetUnderTest": "EKVX NSCLC", "TGI": "64 µM"}
{"molecule": "CCCCCC(O)C1C(=O)OC(C)C(O)/C=C/C=C/C=C/C=C\\C=C(\\C)C(O)CC(O)CC(O)CC(O)CC(O)CC(O)CC1O (stereo not drawn)", "targetUnderTest": "EKVX NSCLC", "TGI": "> 100 µM"}
{"molecule": "CCCN(CCCC(NC(C)=O)C(=O)NCc1ccccc1)C(=O)NC (stereo not drawn)", "targetUnderTest": "EKVX NSCLC", "TGI": "> 100 µM"}
{"molecule": "CC(=O)Nc1ccc(Sc2ccc([N+](=O)[O-])o2)cc1", "targetUnderTest": "EKVX NSCLC", "TGI": "25.2 µM"}
{"molecule": "O=c1[nH]c(Nc2cccc(C(F)(F)F)c2)nc2nc[nH]c12", "targetUnderTest": "EKVX NSCLC", "TGI": "> 100 µM"}
{"molecule": "COC(=O)C1=C(C(=O)OC)C2(OC(C)=O)c3ccccc3-c3ccccc3C12 (stereo not drawn)", "targetUnderTest": "EKVX NSCLC", "TGI": "24.1 µM"}
{"molecule": "COC1=CC(O)(CC(N)=O)c2ccccc2C1=O (stereo not drawn)", "targetUnderTest": "EKVX NSCLC", "TGI": "> 100 µM"}
{"molecule": "CCOc1ccc([C@@H]2[C@@H](Oc3ccccc3)C(=O)N2c2cc(OC)c(OC)c(OC)c2)cc1", "targetUnderTest": "EKVX NSCLC", "TGI": "> 100 µM"}
{"molecule": "COc1cc2c(cc1OC)-c1cc3cc(OC)c(OC)cc3n1CC2", "targetUnderTest": "EKVX NSCLC", "TGI": "> 100 µM"}
{"molecule": "CC1(C)CC(=O)C2=C(C1)c1c(ccc3ccccc13)NC2c1cn(Cc2ccc(Cl)cc2)c2ccccc12 (stereo not drawn)", "targetUnderTest": "EKVX NSCLC", "TGI": "> 100 µM"}
{"molecule": "Cc1cc(C)nc(NS(=O)(=O)c2ccc(Nc3c4ccccc4nc4c(C(=O)NCCCN(CCO)CCO)cccc34)cc2)n1", "targetUnderTest": "EKVX NSCLC", "TGI": "> 100 µM"}
{"molecule": "CS(=O)CCCCCN=C=S (stereo not drawn)", "targetUnderTest": "EKVX NSCLC", "TGI": "24.8 µM"}
{"molecule": "C=CCC(NC(=O)C(CC(=O)OC(C)(C)C)NC(=O)OC(C)(C)C)C(=O)OC (stereo not drawn) (Boc-Asp(OtBu)-[AllylGly]-OMe; configuration not given here)", "targetUnderTest": "EKVX NSCLC", "TGI": "> 100 µM"}
{"molecule": "CN(C)c1ccc(/C=C(\\C#N)C(N)=C(C#N)C#N)cc1", "targetUnderTest": "EKVX NSCLC", "TGI": "> 100 µM"}
{"molecule": "CC(C)(C)N(Cc1ccc2c(c1)OCO2)C(=O)/C=C\\S(=O)c1ccccc1 (stereo not drawn)", "targetUnderTest": "EKVX NSCLC", "TGI": "20.9 µM"}
{"molecule": "CC(=O)O/N=C/c1ncccc1OC(C)=O", "targetUnderTest": "EKVX NSCLC", "TGI": "> 100 µM"}
{"molecule": "NC(=O)N1N=C2c3ccccc3CC[C@@H]2C1c1ccccc1 (stereo partly drawn)", "targetUnderTest": "EKVX NSCLC", "TGI": "> 100 µM"}
{"molecule": "Cc1c(CCOC=O)c(=O)[nH]c2nncn12", "targetUnderTest": "EKVX NSCLC", "TGI": "> 100 µM"}
{"molecule": "O=C(O)C1CCCN1Cc1cc2ccccc2c2ccccc12 (stereo not drawn)", "targetUnderTest": "EKVX NSCLC", "TGI": "> 100 µM"}
{"molecule": "N#CCCN(CCC#N)c1ccc(C(N=Nc2ccccc2)=Nc2ccccc2)cc1", "targetUnderTest": "EKVX NSCLC", "TGI": "> 100 µM"}
{"molecule": "CCOc1ccc(/C(O)=C/c2nc3ccccc3nc2/C=C(\\O)c2ccc(OCC)cc2)cc1", "targetUnderTest": "EKVX NSCLC", "TGI": "> 100 µM"}
{"molecule": "O=S(O)CCCCCSSCCCCSSCCCCCS(=O)O", "targetUnderTest": "EKVX NSCLC", "TGI": "> 100 µM"}
{"molecule": "CC1=C2C(=O)[C@H]3[C@@H](CC=C4C[C@@H](O)CC[C@@]43C)[C@@H]2CC[C@]12O[C@@H]1C[C@H](C)CN[C@H]1[C@H]2C", "targetUnderTest": "EKVX NSCLC", "TGI": "> 66.7 µM"}
